These data points were gathered from patent US4323567A.

Tested on: E. coli 377
Assay: Minimal inhibitory concentration, nutrient agar plate
Format: cell-based, Escherichia coli
Conditions: Escherichia coli, 377; as sodium salt, inoculum size 10^8, pH 7.0; read-out: Minimal inhibitory concentration
measurement_label: MIC (mg/L)
# number only, unit mg/L dropped from output

Record excerpt, results attached:
{"compound": "Cc1nnc(SCC2=C(C(=O)O)N3C(=O)[C@@H](NC(=O)Cn4cnnn4)[C@H]3OC2)s1 [(3), reference compound]", "MIC [mg/L]": 25}
{"compound": "CO[C@@]1(NC(=O)C(C(=O)O)c2ccc(O)cc2)C(=O)N2C(C(=O)O)=C(CSc3nnnn3C)CO[C@@H]21 (stereo partly shown) [III-15]", "MIC [mg/L]": 0.39}
{"compound": "Cn1nnnc1SCC1=C(C(=O)O)N2C(=O)[C@@H](NC(=O)C(C(=O)O)c3ccccc3)[C@H]2OC1 (stereo partly shown) [Example III-1]", "MIC [mg/L]": 0.2}
{"compound": "Cn1nnnc1SCC1=C(C(=O)O)N2C(=O)[C@@H](NC(=O)C(C(=O)O)c3cccs3)[C@H]2OC1 (stereo partly shown) [Example III-8]", "MIC [mg/L]": 0.2}
{"compound": "O=C(O)Cn1nnnc1SCC1=C(C(=O)O)N2C(=O)[C@@H](NC(=O)C(C(=O)O)c3cccs3)[C@H]2OC1 (stereo partly shown) [Example III-11]", "MIC [mg/L]": 6.25}

GET /values?readout=MIC&system=E. coli 377&item= Cn1nnnc1SCC1=C(C(=O)O)N2C(=O)[C@@H](NC(=O)C(O)c3ccccc3)[C@H]2OC1 (stereo partly shown) [(4), reference compound]
50

// next record CO[C@@]1(NC(=O)C(C(=O)O)c2ccc(OC(C)=O)cc2)C(=O)N2C(C(=O)O)=C(CSc3nnnn3C)CO[C@@H]21 (stereo partly shown) [III-14]
1.56

// next record Cc1nnc(SCC2=C(C(=O)O)N3C(=O)[C@@H](NC(=O)C(C(=O)O)c4ccccc4)[C@H]3OC2)s1 (stereo partly shown) [Example III-12]
0.78

// next record Cn1nnnc1SCC1=C(C(=O)O)N2C(=O)[C@@H](NC(=O)C(C(=O)O)c3ccsc3)[C@H]2OC1 (stereo partly shown) [Example III-9]
0.2

// next record O=C(O)Cn1nnnc1SCC1=C(C(=O)O)N2C(=O)[C@@H](NC(=O)C(C(=O)O)c3ccccc3)[C@H]2OC1 (stereo partly shown) [Example III-10]
0.25

###

System: P. vulgaris No. 3
Test: Minimal inhibitory concentration, nutrient agar plate
Type: cell-based
Conditions: Proteus vulgaris, NO.3; as sodium salt, inoculum size 10^8, pH 7.0; read-out: Minimal inhibitory concentration
Catalogue of MIC values
# number only, unit µg/mL dropped from output

{"molecule": "CO[C@@]1(NC(=O)C(C(=O)O)c2ccc(O)cc2)C(=O)N2C(C(=O)O)=C(CSc3nnnn3C)CO[C@@H]21 (some centres unmarked)", "target_desc": "P. vulgaris No. 3", "recorded_value": 0.39}
{"molecule": "CO[C@@]1(NC(=O)C(C(=O)O)c2ccc(OC(C)=O)cc2)C(=O)N2C(C(=O)O)=C(CSc3nnnn3C)CO[C@@H]21 (some centres unmarked)", "target_desc": "P. vulgaris No. 3", "recorded_value": 0.39}
{"molecule": "CO[C@@]1(NC(=O)C(C(=O)O)c2ccsc2)C(=O)N2C(C(=O)O)=C(CSc3nnnn3C)CO[C@@H]21 (some centres unmarked)", "target_desc": "P. vulgaris No. 3", "recorded_value": 0.2}
{"molecule": "CO[C@@]1(NC(=O)C(C(=O)O)c2ccc(OC(N)=O)cc2)C(=O)N2C(C(=O)O)=C(CSc3nnnn3C)CO[C@@H]21 (some centres unmarked)", "target_desc": "P. vulgaris No. 3", "recorded_value": 0.39}

Continue with the next molecule.
Entry CO[C@@]1(NC(=O)C(C(=O)O)c2ccccc2)C(=O)N2C(C(=O)O)=C(CSc3nnnn3C)CO[C@@H]21 (some centres unmarked) : reported MIC = ?
0.2
